Value source: patent US4075332A

Each entry below carries its recorded IC50.
target: UniProt:P23795; test: biochemical; format: biochemical
Report the figure in µM without appending any unit label.

// worked examples, IC50 included
{"columns": ["MOLECULE", "UNIT INFO", "MEAS VALUE"],
 "data": [
  ["CCCSP(=O)(OCC)SCSc1ccc(Cl)cc1 (stereo not shown)", "µM", 0.0041],
  ["CCOP(=S)(OCC)SCCSCC [Disyston, reference compound]", "µM", 380],
  ["CCCSP(=O)(OCC)SCSCC (stereo not shown)", "µM", 2.7]
]}

Please turn your attention to the following entry.
Recorded IC50 (molecule CCOP(=S)(OCC)SCSCC [Thimet, reference compound] ): 31

---

test system: Bean aphids; assay: whole plant or invertebrate; conditions: Aphis fabae, 48 h, read-out: Bean Aphids Mortality,%
EXPERIMENTAL READOUT: mortality at 50 ppm (%)
Report the figure in % without appending any unit label.

{"columns": ["COMPOUND", "TARGET UNDER TEST", "UNIT INFO", "mortality at 50 ppm"],
 "data": [
  ["CCCSP(=O)(OCC)SCC(C)SC(C)C (centres unmarked)", "Bean aphids", "%", 50],
  ["CCCCCCSC(C)CSP(=O)(OCC)SCCC (centres unmarked)", "Bean aphids", "%", 50],
  ["CCCSC(C)CSP(=O)(OCC)SCCC (centres unmarked)", "Bean aphids", "%", 100]
]}

Item CCCSP(=O)(OCC)SCC(C)SCC (centres unmarked) ; assay system Bean aphids; mortality at 50 ppm reported as 100

Item CCCSP(=O)(OCC)SCC(C)SC (centres unmarked) ; assay system Bean aphids; mortality at 50 ppm reported as 100

---

system: Root-knot nematode; settings: in vivo
EXPERIMENTAL READOUT: Nematode Control,% (%)
Report the figure in % without appending any unit label.

// worked examples, Nematode Control,% included
{"columns": ["COMPOUND", "TARGET UNDER TEST", "Nematode Control,% (%)"],
 "data": [
  ["CCCSP(=O)(OCC)SCC(C)SC(C)C (centres unmarked)", "Root-knot nematode", 100],
  ["CCCSP(=O)(OCC)SCC(C)SCC (centres unmarked)", "Root-knot nematode", 100],
  ["CCCSC(C)CSP(=O)(OCC)SCCC (centres unmarked)", "Root-knot nematode", 100],
  ["CCCSP(=O)(OCC)SCC(C)SC (centres unmarked)", "Root-knot nematode", 100]
]}

Recorded Nematode Control,% (compound CCCCCCSC(C)CSP(=O)(OCC)SCCC (centres unmarked) ): 10

---

tested on: Bean aphids; assay: Aphid, Systemic; type: in vivo, bean aphid; settings: Aphis fabae, 48 h, read-out: Mortality Produced, % - Bean Aphids Systemic
Each entry below carries its recorded mortality at 250 ppm.
Report the figure in % without appending any unit label.

Recorded mortality at 250 ppm (compound CCCOP(=O)(SCCC)SCC(C)SC (stereo not drawn) ): 20

Recorded mortality at 250 ppm (compound CCCCSP(=O)(OCC)SCC(C)SC (stereo not drawn) ): 40

Recorded mortality at 250 ppm (compound CCCSP(=O)(OCC)SCC(C)SC (stereo not drawn) ): 100

Recorded mortality at 250 ppm (compound CCCSP(=O)(OC)SCC(C)SC (stereo not drawn) ): 100

Recorded mortality at 250 ppm (compound CCOP(=O)(SCC(C)SC)SC(C)C (stereo not drawn) ): 80

Recorded mortality at 250 ppm (compound CCOP(=O)(SCC(C)C)SCC(C)SC (stereo not drawn) ): 100

---

molecular target: bovine cholinesterase (Bos taurus); assay: biochemical; type: biochemical; conditions: read-out: Cholinesterase Inhibiting conc. LD50, Mole/Liter; 30 min
Sequence (P23795-2 with tags, fused parts or gaps limits assumed): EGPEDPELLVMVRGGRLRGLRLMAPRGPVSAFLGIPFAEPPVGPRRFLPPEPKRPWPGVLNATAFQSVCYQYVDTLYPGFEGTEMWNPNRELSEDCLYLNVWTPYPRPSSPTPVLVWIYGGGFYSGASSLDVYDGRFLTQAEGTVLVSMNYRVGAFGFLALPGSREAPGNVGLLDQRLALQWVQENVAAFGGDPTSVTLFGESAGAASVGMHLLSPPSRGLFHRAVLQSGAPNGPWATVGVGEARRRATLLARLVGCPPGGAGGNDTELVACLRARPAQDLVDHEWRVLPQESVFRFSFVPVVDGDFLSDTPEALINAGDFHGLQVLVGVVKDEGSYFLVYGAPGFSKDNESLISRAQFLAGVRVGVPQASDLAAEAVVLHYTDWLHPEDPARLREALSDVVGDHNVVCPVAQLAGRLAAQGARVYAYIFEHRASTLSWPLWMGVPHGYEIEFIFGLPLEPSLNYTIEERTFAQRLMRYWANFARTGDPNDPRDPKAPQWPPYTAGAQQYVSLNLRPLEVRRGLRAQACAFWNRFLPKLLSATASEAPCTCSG
EXPERIMENTAL READOUT: IC50 (nM)
Report the figure in nM without appending any unit label.

Recorded IC50 (compound CCCSP(=O)(OCC)SCCSCC (stereo not shown) [Example 30] ): 1100

---

test system: Mexican bean beetle; experiment: whole plant or invertebrate; details: Epilachna varivestis, read-out: Mortality Produced, % - Mex.Bean Beetle
EXPERIMENTAL READOUT: mortality at 250 ppm (%)
Report the figure in % without appending any unit label.

// worked examples, mortality at 250 ppm included
{"columns": ["COMPOUND", "UNIT INFO", "mortality at 250 ppm"],
 "data": [
  ["CCOP(=O)(SCC(C)C)SCC(C)SC (stereo not drawn) [Example 37]", "%", 100],
  ["CCCSP(=O)(OCC)SCC(C)SC (stereo not drawn) [Example 32]", "%", 100],
  ["CCOP(=O)(SCC(C)SC)SC(C)C (stereo not drawn) [Example 42]", "%", 100],
  ["CCCSP(=O)(OC)SCC(C)SC (stereo not drawn) [Example 40]", "%", 100]
]}

Recorded mortality at 250 ppm (compound CCCOP(=O)(SCCC)SCC(C)SC (stereo not drawn) [Example 43] ): 100

Recorded mortality at 250 ppm (compound CCCCSP(=O)(OCC)SCC(C)SC (stereo not drawn) [Example 41] ): 100

---

Each entry below carries its recorded mortality at 10 ppm.
tested on: Spider mites; assay: whole plant or invertebrate; details: Tetranychus urticae, read-out: Spider Mites Mortality,%
Report the figure in % without appending any unit label.

Recorded mortality at 10 ppm (compound CCCSP(=O)(OCC)SCC(C)SC (centres unmarked) ): 100

Recorded mortality at 10 ppm (compound CCCSC(C)CSP(=O)(OCC)SCCC (centres unmarked) ): 100

Recorded mortality at 10 ppm (compound CCCCCCSC(C)CSP(=O)(OCC)SCCC (centres unmarked) ): 90

Recorded mortality at 10 ppm (compound CCCSP(=O)(OCC)SCC(C)SCC (centres unmarked) ): 100

Recorded mortality at 10 ppm (compound CCCSP(=O)(OCC)SCC(C)SC(C)C (centres unmarked) ): 100

---

test system: Bean aphids; test: Aphid, Systemic; type: in vivo, bean aphid; conditions: Aphis fabae, 48 h, read-out: Mortality, % - Bean Aphids Systemic
Each entry below carries its recorded mortality at 250 ppm.
Could you write the number and then its unit?

Recorded mortality at 250 ppm (compound CCCSP(=O)(OCC)SCCS(C)(=O)=O (centres unmarked) ): 100%

Recorded mortality at 250 ppm (compound CCCSP(=O)(OCC)SCC[S+](C)[O-] (centres unmarked) ): 100%

Recorded mortality at 250 ppm (compound CCCSP(=O)(OCC)SCCSCC (centres unmarked) ): 90%

Recorded mortality at 250 ppm (compound CCCSP(=O)(OCC)SCCSc1ccccc1 (centres unmarked) ): 20%

Recorded mortality at 250 ppm (compound CCCSP(=O)(OCC)SCCSC (centres unmarked) ): 95%

Recorded mortality at 250 ppm (compound CCCSP(=O)(OCC)SCC(C)S(C)(=O)=O (centres unmarked) ): 95%

Recorded mortality at 250 ppm (compound CCCSCCSP(=O)(OCC)SCCC (centres unmarked) ): 75%

Recorded mortality at 250 ppm (compound CCCSP(=O)(OCC)SCCSc1ccc(Cl)cc1 (centres unmarked) ): 10%

---

tested on: Mexican bean beetle; assay: whole plant or invertebrate; conditions: Epilachna varivestis, read-out: Mexican Bean Beetles Mortality,%
Each entry below carries its recorded mortality at 50 ppm.
Report the figure in % without appending any unit label.

Recorded mortality at 50 ppm (compound CCCCCCSC(C)CSP(=O)(OCC)SCCC (centres unmarked) ): 100

Recorded mortality at 50 ppm (compound CCCSC(C)CSP(=O)(OCC)SCCC (centres unmarked) ): 100

Recorded mortality at 50 ppm (compound CCCSP(=O)(OCC)SCC(C)SCC (centres unmarked) ): 70

Recorded mortality at 50 ppm (compound CCCSP(=O)(OCC)SCC(C)SC (centres unmarked) ): 100

Recorded mortality at 50 ppm (compound CCCSP(=O)(OCC)SCC(C)SC(C)C (centres unmarked) ): 100

---

tested on: Southern army worm; conditions: southern armyworm, in vivo
Each entry below carries its recorded Southern Army Worm Mortality, %.
Report the figure in % without appending any unit label.

Recorded Southern Army Worm Mortality, % (compound CCOP(=S)(OCC)SCCSCC [Disyston, reference compound] ): 0

Recorded Southern Army Worm Mortality, % (compound CCOP(=S)(OCC)SCSc1ccc(Cl)cc1 [Trithion, reference compound] ): 0

Recorded Southern Army Worm Mortality, % (compound CCCSP(=O)(OCC)SCSc1ccc(Cl)cc1 (stereo not drawn) ): 100

Recorded Southern Army Worm Mortality, % (compound CCCSP(=O)(OCC)SCSCC (stereo not drawn) ): 100

Recorded Southern Army Worm Mortality, % (compound CCCSP(=O)(OCC)SCCSCC (stereo not drawn) ): 100

Recorded Southern Army Worm Mortality, % (compound CCOP(=S)(OCC)SCSCC [Thimet, reference compound] ): 0

---

Each entry below carries its recorded mortality at 50 ppm.
test system: Bean aphids; assay: whole plant or invertebrate; conditions: Aphis fabae, 48 h, read-out: Mortality Produced, % - Bean Aphids Contact
Report the figure in % without appending any unit label.

// worked examples, mortality at 50 ppm included
{"columns": ["COMPOUND", "MEAS VALUE"],
 "data": [
  ["CCOP(=O)(SCC(C)SC)SC(C)C (stereo not shown)", 50],
  ["CCOP(=O)(SCC(C)C)SCC(C)SC (stereo not shown)", 10],
  ["CCCSP(=O)(OCC)SCC(C)SC (stereo not shown)", 100]
]}

Please turn your attention to the following entry.
Recorded mortality at 50 ppm (compound CCCCSP(=O)(OCC)SCC(C)SC (stereo not shown) ): 60
